assay.protocol: Visible light transmittance of laminated glass sample
Type: physicochemical
assay.context: 380 to 780 nm, JIS R3212
parameter: Visible light transmittance (%)
Note: unit % is implicit; provide only the numeric part.

Task: Identify Visible light transmittance associated with the compound COc1cccc(OC)c1OCCCCc1ccc(CCCCOc2c(OC)cccc2OC)c2c1-c1nc-2nc2[n-]c(nc3nc(nc4[n-]c(n1)c1c(CCCCOc5c(OC)cccc5OC)ccc(CCCCOc5c(OC)cccc5OC)c41)-c1c(CCCCOc4c(OC)cccc4OC)ccc(CCCCOc4c(OC)cccc4OC)c1-3)c1c(CCCCOc3c(OC)cccc3OC)ccc(CCCCOc3c(OC)cccc3OC)c21.[O]=[V+2] [Specific Example (1)-44]
Result: 77.9

Task: Identify Visible light transmittance associated with the compound [O]=[V+2].c1ccc(OCCOCCCCc2ccc(CCCCOCCOc3ccccc3)c3c2-c2nc-3nc3[n-]c(nc4nc(nc5[n-]c(n2)c2c(CCCCOCCOc6ccccc6)ccc(CCCCOCCOc6ccccc6)c52)-c2c(CCCCOCCOc5ccccc5)ccc(CCCCOCCOc5ccccc5)c2-4)c2c(CCCCOCCOc4ccccc4)ccc(CCCCOCCOc4ccccc4)c32)cc1 [Specific Example (1)-38]
Result: 77.8

Task: Identify Visible light transmittance associated with the compound Fc1ccccc1OCCCCc1ccc(CCCCOc2ccccc2F)c2c1-c1nc-2nc2[n-]c(nc3nc(nc4[n-]c(n1)c1c(CCCCOc5ccccc5F)ccc(CCCCOc5ccccc5F)c41)-c1c(CCCCOc4ccccc4F)ccc(CCCCOc4ccccc4F)c1-3)c1c(CCCCOc3ccccc3F)ccc(CCCCOc3ccccc3F)c21.[O]=[V+2] [Specific Example (1)-43]
Result: 77.6

###

assay.protocol: Visible light transmittance of chloroform solution
Type: physicochemical
assay.context: spectrum converted to transmittance 10% at near-infrared maximum absorption wavelength
parameter: Transmittance (%) 460 nm
Note: unit % is implicit; provide only the numeric part.

Task: Identify Transmittance (%) 460 nm associated with the compound [O]=[V+2].c1ccc(OCCCCc2ccc(CCCCOc3ccccc3)c3c2-c2nc-3nc3[n-]c(nc4nc(nc5[n-]c(n2)c2c(CCCCOc6ccccc6)ccc(CCCCOc6ccccc6)c52)-c2c(CCCCOc5ccccc5)ccc(CCCCOc5ccccc5)c2-4)c2c(CCCCOc4ccccc4)ccc(CCCCOc4ccccc4)c32)cc1 [Specific Example (1)-37]
Result: 98.0

Task: Identify Transmittance (%) 460 nm associated with the compound CCOCCCCc1ccc(CCCCOCC)c2c1-c1nc-2nc2[n-]c(nc3nc(nc4[n-]c(n1)c1c(CCCCOCC)ccc(CCCCOCC)c41)-c1c(CCCCOCC)ccc(CCCCOCC)c1-3)c1c(CCCCOCC)ccc(CCCCOCC)c21.[O]=[V+2] [Specific Example (1)-33]
Result: 98.1

Task: Identify Transmittance (%) 460 nm associated with the compound COCCCCc1ccc(CCCCOC)c2c1-c1nc-2nc2[n-]c(nc3nc(nc4[n-]c(n1)c1c(CCCCOC)ccc(CCCCOC)c41)-c1c(CCCCOC)ccc(CCCCOC)c1-3)c1c(CCCCOC)ccc(CCCCOC)c21.[Cu+2] [Specific Example (1)-31]
Result: 99.2

Task: Identify Transmittance (%) 460 nm associated with the compound COCCCCc1ccc(CCCCOC)c2c1-c1nc-2nc2[n-]c(nc3nc(nc4[n-]c(n1)c1c(CCCCOC)ccc(CCCCOC)c41)-c1c(CCCCOC)ccc(CCCCOC)c1-3)c1c(CCCCOC)ccc(CCCCOC)c21.[O]=[V+2] [Specific Example (1)-30]
Result: 98.1

Task: Identify Transmittance (%) 460 nm associated with the compound COc1cccc(OC)c1OCCCCc1ccc(CCCCOc2c(OC)cccc2OC)c2c1-c1nc-2nc2[n-]c(nc3nc(nc4[n-]c(n1)c1c(CCCCOc5c(OC)cccc5OC)ccc(CCCCOc5c(OC)cccc5OC)c41)-c1c(CCCCOc4c(OC)cccc4OC)ccc(CCCCOc4c(OC)cccc4OC)c1-3)c1c(CCCCOc3c(OC)cccc3OC)ccc(CCCCOc3c(OC)cccc3OC)c21.[Cu+2] [Specific Example (1)-45]
Result: 99.9

Task: Identify Transmittance (%) 460 nm associated with the compound COc1cccc(OC)c1OCCCCc1ccc(CCCCOc2c(OC)cccc2OC)c2c1-c1nc-2nc2[n-]c(nc3nc(nc4[n-]c(n1)c1c(CCCCOc5c(OC)cccc5OC)ccc(CCCCOc5c(OC)cccc5OC)c41)-c1c(CCCCOc4c(OC)cccc4OC)ccc(CCCCOc4c(OC)cccc4OC)c1-3)c1c(CCCCOc3c(OC)cccc3OC)ccc(CCCCOc3c(OC)cccc3OC)c21.[O]=[V+2] [Specific Example (1)-44]
Result: 98.3

Task: Identify Transmittance (%) 460 nm associated with the compound [O]=[V+2].c1ccc(OCCOCCCCc2ccc(CCCCOCCOc3ccccc3)c3c2-c2nc-3nc3[n-]c(nc4nc(nc5[n-]c(n2)c2c(CCCCOCCOc6ccccc6)ccc(CCCCOCCOc6ccccc6)c52)-c2c(CCCCOCCOc5ccccc5)ccc(CCCCOCCOc5ccccc5)c2-4)c2c(CCCCOCCOc4ccccc4)ccc(CCCCOCCOc4ccccc4)c32)cc1 [Specific Example (1)-38]
Result: 98.3
